B1: Azoarcus group I ribozyme (parent)
chain: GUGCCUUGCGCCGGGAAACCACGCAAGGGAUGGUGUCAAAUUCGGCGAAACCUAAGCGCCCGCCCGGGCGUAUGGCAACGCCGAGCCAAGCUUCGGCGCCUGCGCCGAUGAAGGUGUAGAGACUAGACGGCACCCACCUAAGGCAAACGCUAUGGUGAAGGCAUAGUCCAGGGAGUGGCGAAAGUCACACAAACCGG

Variants of: B1
assay-remarks: reverse-splicing fitness (ratio to wild type); higher = more active; in vitro selection; Mg2+ level not given
readout-kind: reverse-splicing fitness

# input Specify reverse-splicing fitness for C82A A120C A145G C150A C169U U176A and stop.
# output 0.0177

# input Specify reverse-splicing fitness for C82U A111G A120C A145U C150G C169G U176G and stop.
# output 0.00386

# input Specify reverse-splicing fitness for C82A A111U A120G C150G C169G and stop.
# output 0.00782

# input Specify reverse-splicing fitness for A120C A145G C150U U176G and stop.
# output 0.179

# input Specify reverse-splicing fitness for C82G A111G A120U A145U C150A C169A U176A and stop.
# output 0.00256

# input Specify reverse-splicing fitness for C82A A111C A120C A145C C150A C169G U176C and stop.
# output 0.024

# input Specify reverse-splicing fitness for C82G A145C C169G and stop.
# output 0.0115

# input Specify reverse-splicing fitness for C82A A111G A120U C150G and stop.
# output 0.00849

# input Specify reverse-splicing fitness for A120U A145G C150G U176G and stop.
# output 0.013

# input Specify reverse-splicing fitness for A111G A120C A145U C150G C169A and stop.
# output 0.00821

# input Specify reverse-splicing fitness for C82U A111G A120C A145U C150A C169U and stop.
# output 0.00709

# input Specify reverse-splicing fitness for A120G A145U C150A and stop.
# output 0.0603

# input Specify reverse-splicing fitness for C82U A111U A120C A145U C150G C169G U176G and stop.
# output 0.0048

# input Specify reverse-splicing fitness for C82G A111U A120C A145G C150G C169U U176A and stop.
# output 0.0139

# input Specify reverse-splicing fitness for C82G A120C A145G C150G U176G and stop.
# output 0.00687

# input Specify reverse-splicing fitness for C82G A111G A120C C150U U176G and stop.
# output 0.0127

# input Specify reverse-splicing fitness for C82G A111U A145C C150A C169A and stop.
# output 0.00868

# input Specify reverse-splicing fitness for A111G A120G A145G C150G C169G U176G and stop.
# output 0.0054

# input Specify reverse-splicing fitness for A120U A145U C150G and stop.
# output 0.267

# input Specify reverse-splicing fitness for C82A A111G A120G A145U C150G C169U U176A and stop.
# output 0.012

# input Specify reverse-splicing fitness for C82G A111C A120G A145U C150U C169G U176G and stop.
# output 0.00519

# input Specify reverse-splicing fitness for A145C C150A C169A U176G and stop.
# output 0.00533

# input Specify reverse-splicing fitness for C82A A111G A145U C150U C169G U176G and stop.
# output 0.00627

# input Specify reverse-splicing fitness for C82G A111U C150A and stop.
# output 0.0323

# input Specify reverse-splicing fitness for C82G A111U A120U A145U C150U U176G and stop.
# output 0.00302

# input Specify reverse-splicing fitness for C82G A111C C169U U176A and stop.
# output 0.0194

# input Specify reverse-splicing fitness for C82G A120C C150U and stop.
# output 0.108

# input Specify reverse-splicing fitness for C82A A111G A120C A145U C150A C169U and stop.
# output 0.00961

# input Specify reverse-splicing fitness for C82U A111U C150G C169A U176C and stop.
# output 0.00895

# input Specify reverse-splicing fitness for A111G A120C A145C C150A C169A U176A and stop.
# output 0.00728

# input Specify reverse-splicing fitness for C82G A111G A120G C150U C169G U176G and stop.
# output 0.00549

# input Specify reverse-splicing fitness for A111G A145C C169U U176C and stop.
# output 0.0591

# input Specify reverse-splicing fitness for C82A A111C A120U C150U C169G U176G and stop.
# output 0.00288

# input Specify reverse-splicing fitness for A111U A120G C169G and stop.
# output 0.218

# input Specify reverse-splicing fitness for A111G A120G C150G U176G and stop.
# output 0.00356

# input Specify reverse-splicing fitness for C82A A120G A145C C150A C169G U176A and stop.
# output 0.0238

# input Specify reverse-splicing fitness for C82A A111C A120G A145U C150U and stop.
# output 0.0124

# input Specify reverse-splicing fitness for C82U A111G A120C C150G C169U U176G and stop.
# output 0.00489

# input Specify reverse-splicing fitness for C82G A111G A120C A145C C150G C169G U176A and stop.
# output 0.0112

# input Specify reverse-splicing fitness for A111G A120C A145U C150A C169U U176C and stop.
# output 0.0177

# input Specify reverse-splicing fitness for C82A A111U A120G A145G C169U U176A and stop.
# output 0.0211

# input Specify reverse-splicing fitness for C82U A111U A120C C150A C169A U176C and stop.
# output 0.0182

# input Specify reverse-splicing fitness for C82G A111G A120G A145C and stop.
# output 0.0157

# input Specify reverse-splicing fitness for C82A A120U A145C C150G U176A and stop.
# output 0.00523

# input Specify reverse-splicing fitness for C82A A111U A145G C169A U176G and stop.
# output 0.00574

# input Specify reverse-splicing fitness for A120C C150A C169G U176A and stop.
# output 0.0161

# input Specify reverse-splicing fitness for C82U A111C A120C A145C C150G C169A U176C and stop.
# output 0.00704

# input Specify reverse-splicing fitness for C82G A111U A145C C150G U176G and stop.
# output 0.00504

# input Specify reverse-splicing fitness for C82A A111U A145G C150G U176C and stop.
# output 0.0188

# input Specify reverse-splicing fitness for C82A A145G C150U C169U and stop.
# output 0.0162

# input Specify reverse-splicing fitness for C82G A111G A120C A145C C150A U176A and stop.
# output 0.0112

# input Specify reverse-splicing fitness for C82G A111C A120G A145G C150U C169G and stop.
# output 0.0134

# input Specify reverse-splicing fitness for C82G A111G A145G C150G C169G U176A and stop.
# output 0.011

# input Specify reverse-splicing fitness for C82A A111U A120C C150G C169U U176A and stop.
# output 0.00757

# input Specify reverse-splicing fitness for C82G A111C A145G C169A U176C and stop.
# output 0.0311

# input Specify reverse-splicing fitness for C82G A111C A120U A145G C150U C169G U176G and stop.
# output 0.00259

# input Specify reverse-splicing fitness for C82G A111U A120C A145G C150G C169G and stop.
# output 0.00753

# input Specify reverse-splicing fitness for C82U A111G A145U C150U C169A U176C and stop.
# output 0.00733

# input Specify reverse-splicing fitness for A111C A120C C150G C169G U176C and stop.
# output 0.00683

# input Specify reverse-splicing fitness for C82U A111U A120C A145C C150A C169A U176A and stop.
# output 0.00878

# input Specify reverse-splicing fitness for C82U A111U A120U A145C C169A U176C and stop.
# output 0.00199

# input Specify reverse-splicing fitness for C82G A111U A120U A145C C150A C169U U176A and stop.
# output 0.00306

# input Specify reverse-splicing fitness for C82A A111G A120U C169A and stop.
# output 0.00261

# input Specify reverse-splicing fitness for C82G A111C A120C A145C C150A C169A and stop.
# output 0.00796

# input Specify reverse-splicing fitness for A120G C150A U176A and stop.
# output 0.0445

# input Specify reverse-splicing fitness for C82U A120U A145U C150G C169U U176C and stop.
# output 0.00297

# input Specify reverse-splicing fitness for C82G A120U A145C C150A U176A and stop.
# output 0.00467

# input Specify reverse-splicing fitness for C82U A120C A145G C150A U176G and stop.
# output 0.00716

# input Specify reverse-splicing fitness for C82A A111U A120U C169U and stop.
# output 0.00502

# input Specify reverse-splicing fitness for C82G A120G A145C C150U C169A U176G and stop.
# output 0.00471

# input Specify reverse-splicing fitness for C82U A111U A120U A145G U176A and stop.
# output 0.00732

# input Specify reverse-splicing fitness for C82G A111U A120U A145G C169G U176C and stop.
# output 0.00515

# input Specify reverse-splicing fitness for A111G A120G A145C C150U C169U U176A and stop.
# output 0.0353

# input Specify reverse-splicing fitness for A111U A120U A145C C150U U176G and stop.
# output 0.0208

# input Specify reverse-splicing fitness for C82U A111G C169G U176C and stop.
# output 0.0183

# input Specify reverse-splicing fitness for C82U A111U A120G A145C C150U C169U U176C and stop.
# output 0.00897

# input Specify reverse-splicing fitness for C82G A111G A120U A145U C150A C169G U176C and stop.
# output 0.00301

# input Specify reverse-splicing fitness for C82A A120G C150U C169U U176A and stop.
# output 0.0231

# input Specify reverse-splicing fitness for C82A A111U A120G A145C C169A U176C and stop.
# output 0.00818

# input Specify reverse-splicing fitness for A120U A145C C150A C169U U176C and stop.
# output 0.00371

# input Specify reverse-splicing fitness for C82G A111C A120U A145G C150G C169A U176G and stop.
# output 0.00544

# input Specify reverse-splicing fitness for A111U A120G A145U C169A and stop.
# output 0.117

# input Specify reverse-splicing fitness for C82U A120G A145C C150U C169G and stop.
# output 0.00988

# input Specify reverse-splicing fitness for A111G A120G A145U C150U C169U U176G and stop.
# output 0.00675

# input Specify reverse-splicing fitness for C82G A111C A120G A145G C169A and stop.
# output 0.0114

# input Specify reverse-splicing fitness for C82U A111C A120U A145G C150A C169A U176G and stop.
# output 0.00278

# input Specify reverse-splicing fitness for C82U A111C A120G A145U C169U U176G and stop.
# output 0.00369

# input Specify reverse-splicing fitness for C82U A111U A120G A145U C150G C169G U176C and stop.
# output 0.00435

# input Specify reverse-splicing fitness for C82A A111U A120C A145G C169U U176G and stop.
# output 0.00584

# input Specify reverse-splicing fitness for C82G A111U A120C A145U C150G C169G U176C and stop.
# output 0.007

# input Specify reverse-splicing fitness for C82A A111G A120C A145U C150A C169A and stop.
# output 0.0111

Measured values drawn from the RNAGym collection of RNA variant scans (doi:10.1093/molbev/msab373) for this set.
